B1: BRF1 (parent)
chain: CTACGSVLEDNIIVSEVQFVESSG

Variants of: B1
Measurement description: protein stability index of a GFP-peptide fusion (GPS, HEK-293T) (PSI 1-6); higher = more stable;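 further: lentivirally expressed fusions sorted by FACS into six bins by GFP to DsRed ratio, PSI derived from sequencing read proportions per bin multiplied by bin number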
Measurement parameters: c terminus: a fixed tail appended
Decision: protein stability index compared against 3; not below it gives fulfilled, below it gives not fulfilled.

Exercise: Quick check: does "A3F" have protein stability index greater than or equal to 3?
Solution: not fulfilled

Exercise: Quick check: does "N11E" have protein stability index greater than or equal to 3?
Solution: not fulfilled

Exercise: Quick check: does "S22K" have protein stability index greater than or equal to 3?
Solution: fulfilled

Exercise: Quick check: does "V7A" have protein stability index greater than or equal to 3?
Solution: fulfilled

Exercise: Quick check: does "E16F" have protein stability index greater than or equal to 3?
Solution: not fulfilled

Exercise: Quick check: does "N11C" have protein stability index greater than or equal to 3?
Solution: not fulfilled

Exercise: Quick check: does "S23A" have protein stability index greater than or equal to 3?
Solution: fulfilled

Exercise: Quick check: does "F19W" have protein stability index greater than or equal to 3?
Solution: not fulfilled

Exercise: Quick check: does "E16D" have protein stability index greater than or equal to 3?
Solution: fulfilled

Exercise: Quick check: does "Q18L" have protein stability index greater than or equal to 3?
Solution: not fulfilled

Exercise: Quick check: does "E16V" have protein stability index greater than or equal to 3?
Solution: not fulfilled

Exercise: Quick check: does "I13M" have protein stability index greater than or equal to 3?
Solution: fulfilled

Exercise: Quick check: does "S6C" have protein stability index greater than or equal to 3?
Solution: not fulfilled

Exercise: Quick check: does "D10P" have protein stability index greater than or equal to 3?
Solution: fulfilled

Exercise: Quick check: does "V7M" have protein stability index greater than or equal to 3?
Solution: not fulfilled

Exercise: Quick check: does "Q18R" have protein stability index greater than or equal to 3?
Solution: not fulfilled

Exercise: Quick check: does "V17N" have protein stability index greater than or equal to 3?
Solution: fulfilled

Exercise: Quick check: does "S15M" have protein stability index greater than or equal to 3?
Solution: not fulfilled

Exercise: Quick check: does "V17T" have protein stability index greater than or equal to 3?
Solution: fulfilled

Exercise: Quick check: does "F19T" have protein stability index greater than or equal to 3?
Solution: fulfilled

Exercise: Quick check: does "I13A" have protein stability index greater than or equal to 3?
Solution: fulfilled
